- assay overview: Solvent solubility (butyl acetate, toluene or PGMEA)
- Format: physicochemical
- condition description: toluene, 25° C.
quantity measured: Solvent solubility Toluene (wt %)

                                   compound  measured_value
0  O=C(Oc1cc2c3c(cccc3c1)C(=O)N(OS(=O)(=O)C(F)(F)F)C2=O)c1ccccc1              23
1  CCCOc1ccc2c3c(cccc13)C(=O)N(OS(=O)(=O)CC13CCC(CC1=O)C3(C)C)C2=O (stereo not drawn)               2
2  CC1(C)C2CCC1(CS(=O)(=O)ON1C(=O)c3cccc4c(Cl)ccc(c34)C1=O)C(=O)C2 (stereo not drawn)             2.5
3  CC(C)Oc1ccc2c3c(cccc13)C(=O)N(OS(=O)(=O)C(F)(F)F)C2=O               9
4  O=C(Cc1ccccc1)c1ccc2c3c(cccc13)C(=O)N(OS(=O)(=O)c1c(F)c(F)c(F)c(F)c1F)C2=O             5.5
5  O=C1c2cccc3c(Oc4cccc(C(F)(F)F)c4)ccc(c23)C(=O)N1OS(=O)(=O)c1c(F)c(F)c(F)c(F)c1F              10
